As shown below, each of these compounds has a reported viability value.
# assay_protocol: growth inhibitors of H69AR lung tumor, primary screen, human, duplicate replicates (AID 580);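 further: 100% = mean luminescence of untreated wells and 0% = no signal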
# condition_context: H69AR lung tumor cells viability, ATP luminescence, 72 h; at 10 µM; active compounds read low
observed_property: viability (%)

CN(C)C(CN1C(=O)C2CC=CCC2C1=O)c1cn(C)c2ccccc12 (stereo unspecified) : 95.4
CCCn1nnnc1SCC(=O)c1ccc2c(c1)OCCO2 : 106
CCOC(=O)CC(=O)CSc1[nH]c(=O)cc(C)c1C#N : 108
C=CCC(NCc1ccco1)c1ccc(OC)cc1OC (stereo unspecified) : 93
O=C(Nc1ccccc1C(=O)N1CCN(c2ccccc2)CC1)c1ccco1 : 100
Cc1ccccc1CS(=O)(=O)CCC(=O)N1CCN(c2ccc(N3CCOCC3)nn2)CC1 : 103

###

# assay_protocol: growth inhibitors of H69AR lung tumor, primary screen, human, duplicate replicates (AID 580);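 further: 100% = mean luminescence of untreated wells and 0% = no signal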
# condition_context: H69AR lung tumor cells viability, ATP luminescence, 72 h; at 10 µM; active compounds read low
The source made the active and inactive calls.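 How the source made its calls: active means viability at or under a set limit in both replicates, limit being median viability minus 3 SD (cut at about 48% in these data, passing the limit was not always enough); inconclusive means at or under the limit in just one replicate; inactive means at or above the limit in both replicates.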
observed_property: viability

COc1ccc2[nH]c(=O)c(CN(C(=O)c3cccnc3)c3ccccc3OC)cc2c1 : 89.1% (inactive)
CCCN(CCC)S(=O)(=O)c1ccc(C(=O)Nc2nnc(-c3cccc(OC)c3)o2)cc1 : 15.3% (active)
O=C(O)c1cccc(CN2C(=O)SC(Nc3ccccc3)C2=O)c1 (stereo not given) : 103% (inactive)
COc1ccc(OC)c(N(CC(=O)N2CCN(c3cc(Cl)ccc3C)CC2)S(C)(=O)=O)c1 : 75.9% (inactive)
Cc1ccc(NC(=O)C2CC=CCC2C(=O)N2CCCCC2)cc1 (stereo not given) : 95.7% (inactive)
COc1ccccc1N1CCN(C(=O)c2oc3cc(C)c(C)cc3c2C)CC1 : 92.7% (inactive)
CCCCCn1c(CN2CCN(C(=O)OCC)CC2)nc2c1c(=O)[nH]c(=O)n2C : 98.5% (inactive)
COc1ccc(Cl)c(NCCC(=O)O)c1 : 95.6% (inactive)
CCOC(=O)c1ccccc1NC(=O)c1ccc(NS(C)(=O)=O)cc1 : 80.7% (inactive)
COc1ccccc1-n1c(-c2cccnc2)n[nH]c1=S : 109% (inactive)
CCC(=O)N(Cc1cc2c(C)ccc(C)c2[nH]c1=O)C1CCCCC1 : 85.9% (inactive)
Cc1cc2nc(C3CCN(CC4COc5ccccc5O4)CC3)[nH]c2cc1C (stereo not given) : 77.8% (inactive)
O=C(Nc1ccc(Br)cc1F)c1sccc1-n1cccc1 : 83.1% (inactive)
N#Cc1nc(-c2ccco2)oc1NCCc1ccccc1 : 97.4% (inactive)
Cc1ccc(S(=O)(=O)N2CCOCC2)cc1C(=O)OCC(=O)N1CCc2ccccc2C1 : 87.9% (inactive)
CCCn1c(SCC(=O)N2CCN(c3ccccc3)CC2)nc2ccccc2c1=O : 83.8% (inactive)
CCCS(=O)(=O)N1CCN(Cc2ccc(OCc3ccccc3)c(OC)c2)CC1 : 87.8% (inactive)
CCc1ccc2nc(NC(=O)CSCc3c(C)noc3C)sc2c1 : 87.2% (inactive)
COC(=O)c1ccccc1S(=O)(=O)N(CCCN1CCOCC1)Cc1cccs1 : 89.2% (inactive)
O=C1C(Cl)=C(N2CCCCC2)C(=O)N1c1ccccc1Cl : 81.8% (inactive)
COc1cc(C)c(-c2cc(C(=O)O)c(C)o2)cc1C(C)C : 91.8% (inactive)
COc1ccc(C(=O)N2CCSC2=S)cc1OC : 82.1% (inactive)
COC(=O)CSc1nc2ncc(Cl)cc2[nH]1 : 89.8% (inactive)
Cc1ccc(S(=O)(=O)NCCCCC(NC(=O)OC(C)(C)C)C(=O)O)cc1 (stereo not given) (tested in a mixture with another compound) : 104% (inactive)
COc1ccc(CCNC(=O)c2cc(-c3cc(C)c(C)cc3O)n[nH]2)cc1OC : 77% (inactive)
COC(=O)Nc1ccc(S(=O)(=O)N2CCN(c3ccc(F)cc3)CC2)cc1 : 97.1% (inactive)
COc1ccc(OC)c(-c2nnc(SCC(=O)NC3CCCCC3)o2)c1 : 98.5% (inactive)
CCS(=O)(=O)N1CCCC(c2nc(-c3cccc(OC)c3)no2)C1 (stereo not given) : 92.7% (inactive)
CCCCc1ccc(NC(=O)N[C@H](C(=O)O)C(C)CC)cc1 (stereo not given in full) : 99.7% (inactive)
O=C(CSc1ncnc2c1oc1ccccc12)NCc1ccco1 : 76.4% (inactive)
CC1(C(=O)CSc2nc3ccccc3s2)CCC(=O)O1 (stereo not given) : 90.1% (inactive)
COc1ccc(-c2cc(C(F)(F)F)n3nc(C(=O)N4CCOCC4)nc3n2)cc1 : 94.1% (inactive)
O=C1CC(c2cccc(Cl)c2)CC(O)=C1C=NCCCO (stereo not given) : 103% (inactive)
COc1ccc(Oc2c(C)oc3cc(OC(=O)N4CCOCC4)ccc3c2=O)cc1 : 101% (inactive)
CSc1ccccc1N=CC1=C(O)CC(C)(C)CC1=O : 89.2% (inactive)
Cn1c(=O)c2c(nc(SCCCC#N)n2Cc2ccccc2F)n(C)c1=O : 71.2% (inactive)
CC(Sc1nc(-c2ccccc2)cc(C(F)(F)F)n1)C(=O)N1CCC(C(N)=O)CC1 (stereo not given) : 91.1% (inactive)
COC(=O)C1=C(C)Nc2nnnn2C1c1cccs1 (stereo not given) : 96.9% (inactive)
CCOC(=O)Nc1cc(OCC)c(NC(=O)C2CC2)cc1OCC : 100% (inactive)
O=S(=O)(NCc1cn2ccsc2n1)c1ccc2c(c1)OCCO2 : 105% (inactive)
CN(C)C(=O)N1CCC(C(=O)NC2CCCCCCC2)CC1 : 92.9% (inactive)
CCOC(=O)C1CCN(c2c(N3CCCC(C(=O)OCC)C3)c(=O)c2=O)CC1 (stereo not given) : 96.9% (inactive)
COCCCNC(=O)c1ccc2c(c1)OCO2 : 89.8% (inactive)
O=C(CCS(=O)(=O)c1cccc2nonc12)Nc1cccc2c1CCCC2 : 95.5% (inactive)
COc1cc(NC(=O)Cc2cccs2)ccc1-n1cnnn1 : 102% (inactive)

###

As shown below, each of these compounds has a reported viability value.
# assay_protocol: HUVEC growth inhibition – cell-based, human, primary screen (AID 575);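 further: 100% = median of untreated cell wells with 0.1% DMSO on each plate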
# condition_context: HUVEC proliferation, CellTiter-Glo luminescence, 72 h; at 10 µM; active compounds read low
The source made the active and inactive calls.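 How the source made its calls: active means viability at or below 30% in both replicate assays; inconclusive means viability at or below 30% in just one of the two assays; inactive means the rest.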
observed_property: viability

COc1ccc(C(=O)N(Cc2ccco2)C(C(=O)NC2CCCC2)c2ccc(O)cc2)cc1OC (stereo unspecified) : 76.8% (inactive)
CC(C)CC(c1nnnn1C1CCCC1)N1CCN(c2ccccc2F)CC1 (stereo unspecified) : 103% (inactive)
COc1ccc(NC(=O)Nc2ccc(C)cc2OC(F)F)cc1OC : 88% (inactive)
CCc1cc2c(=O)n(C(C)C(=O)OC3CCCCC3)cnc2s1 (stereo unspecified) : 90.1% (inactive)
Cc1c(Cl)cccc1N1C(=O)c2ccccc2C1=O : 99.5% (inactive)
Cc1cc(Nc2ccccc2N2CCOCC2)n2ncnc2n1 : 88% (inactive)
Cc1cccc2sc(NC(=O)Cn3cccc3)nc12 : 107% (inactive)
Cc1ccc(N2CCN(C(=O)c3ccccc3Br)CC2)c(C)c1 : 93% (inactive)
Cc1c(C(=O)N2CCCC2)sc(NC(=O)c2cccs2)c1C#N : 98.1% (inactive)
CCNC(=O)COc1ccc(Br)cc1Cl : 92.1% (inactive)
CCN(C(=O)COC(=O)c1cc(C)n(-c2ccc(F)cc2)c1C)C1CCS(=O)(=O)C1 (stereo unspecified) : 103% (inactive)

###

# measured_on: Receptor tyrosine-protein kinase erbB-2 (Homo sapiens) (UniProt P04626)
# Sequence (P04626 whole entry, looked up): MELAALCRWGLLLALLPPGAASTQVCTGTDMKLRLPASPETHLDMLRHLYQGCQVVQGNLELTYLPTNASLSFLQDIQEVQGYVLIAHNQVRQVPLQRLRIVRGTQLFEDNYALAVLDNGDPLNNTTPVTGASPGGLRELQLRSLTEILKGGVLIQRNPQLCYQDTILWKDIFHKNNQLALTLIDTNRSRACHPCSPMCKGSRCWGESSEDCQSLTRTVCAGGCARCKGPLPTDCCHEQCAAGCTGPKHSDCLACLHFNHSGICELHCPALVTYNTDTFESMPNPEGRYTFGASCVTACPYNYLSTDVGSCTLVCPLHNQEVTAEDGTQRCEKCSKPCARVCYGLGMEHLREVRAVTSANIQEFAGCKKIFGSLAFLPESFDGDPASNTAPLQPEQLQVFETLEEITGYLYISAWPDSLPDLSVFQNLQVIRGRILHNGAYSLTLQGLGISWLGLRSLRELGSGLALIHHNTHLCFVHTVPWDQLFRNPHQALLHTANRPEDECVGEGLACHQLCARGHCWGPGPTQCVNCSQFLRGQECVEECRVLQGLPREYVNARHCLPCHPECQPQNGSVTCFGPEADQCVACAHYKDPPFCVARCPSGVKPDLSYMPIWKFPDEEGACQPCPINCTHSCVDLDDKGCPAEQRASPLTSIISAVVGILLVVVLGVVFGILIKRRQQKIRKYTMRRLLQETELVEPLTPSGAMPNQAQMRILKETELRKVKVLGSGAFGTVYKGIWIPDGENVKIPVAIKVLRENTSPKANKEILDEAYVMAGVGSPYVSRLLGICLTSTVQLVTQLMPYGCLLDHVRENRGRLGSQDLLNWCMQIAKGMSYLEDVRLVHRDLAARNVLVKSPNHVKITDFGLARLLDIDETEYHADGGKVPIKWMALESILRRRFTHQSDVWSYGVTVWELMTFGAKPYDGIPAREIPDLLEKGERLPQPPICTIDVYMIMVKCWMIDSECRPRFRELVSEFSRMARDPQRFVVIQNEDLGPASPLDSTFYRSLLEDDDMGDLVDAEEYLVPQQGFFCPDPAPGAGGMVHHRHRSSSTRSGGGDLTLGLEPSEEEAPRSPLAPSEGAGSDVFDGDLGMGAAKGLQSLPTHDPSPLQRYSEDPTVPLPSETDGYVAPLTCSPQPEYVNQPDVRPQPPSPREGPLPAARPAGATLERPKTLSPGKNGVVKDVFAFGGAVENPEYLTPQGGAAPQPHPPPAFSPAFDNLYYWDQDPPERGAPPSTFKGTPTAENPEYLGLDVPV
# assay_protocol: reducers of endogenous Her2 protein level, primary screen, SKBR3 breast tumor cells, AlphaScreen, ATP viability (AID 461);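 further: lower value means less Her2 protein in the cells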
# condition_context: 18-24 h, at 10 µM, active compounds read low
observed_property: Her2 level (%)

CCOc1ccc(C2CC(=O)NC3=C2C(=O)CCC3)cc1Cl (stereo not drawn) : 97.5
CCOc1ccc(S(=O)(=O)n2nc(C)cc2C)c2ccccc12 : 89.5
COc1cc(C(=O)Nc2ccc(-n3cnnn3)c(C)c2)cc(OC)c1OC : 95.5
CCc1nc(SCC(=O)Nc2nccs2)c2oc3ccccc3c2n1 : 87.5
O=C(O)COc1ccc2occ(C(=O)c3ccccc3)c2c1 : 95.5
CCOc1ccc2ccccc2c1C(=O)N1CCN(c2ccccc2)CC1 : 83.5
C=C(C)Cn1c(SCC)nc2ccccc2c1=O : 97.5
CCOC(=O)CC1=C(C(=O)OCC)C(c2ccc(C)o2)C(C#N)=C(N)O1 (stereo not drawn) : 104
COc1ccc(C2=NO[C@@H]3C(=O)N(c4ccc5c(c4)OCCO5)C(=O)[C@H]23)cc1OC : 112
O=C(CN(C(=O)CCNC(=O)c1ccco1)c1ccccc1)NC1CCCC1 : 112
O=C(Nc1ccc(F)cc1)c1cccc2c1C(=O)N(Cc1ccccn1)C2 : 90
Cc1cccc(NC(=O)COc2ccc(Br)cc2)n1 : 110
COc1ccc2[nH]c(=O)c(CN(CC3CCCO3)C(=O)Nc3ccc(F)cc3)cc2c1 (stereo not drawn) : 113
O=S(=O)(NCCc1ccccn1)c1cccs1 : 93
Cc1cc2c(c(=O)o1)C(Cc1ccccc1)C(C#N)=C(N)O2 (stereo not drawn) : 96
CCC(Sc1ccc2nnc(-c3ccc(F)cc3)n2n1)C(=O)OC (stereo not drawn) : 90
CN1C(=O)CC(N2CCC(C(N)=O)(N3CCCCC3)CC2)C1=O (stereo not drawn) : 86
O=C(Nc1ccc2c(c1)OCO2)c1nn(-c2ccccc2)c(=O)c2ccccc12 : 81
CCCN(CCC)C(=O)C1CCN(c2cc(C)nc3c(-c4ccc(OC)c(OC)c4)c(C)nn23)CC1 : 88
COc1cccc(OC)c1OCCN1CCN(C(=O)c2ccco2)CC1 : 88.5
O=C(OC1CCOC1=O)c1ccc2ccccc2n1 (stereo not drawn) : 85
Cc1cnc(C(=O)Nc2ccc(-n3cnnn3)cc2)cn1 : 98.5
Cn1c(=O)c2c(ncn2CC(O)CNc2ccc(Cl)cc2)n(C)c1=O (stereo not drawn) : 103
